system: UniProt:P70536
Sequence (P70536 whole entry): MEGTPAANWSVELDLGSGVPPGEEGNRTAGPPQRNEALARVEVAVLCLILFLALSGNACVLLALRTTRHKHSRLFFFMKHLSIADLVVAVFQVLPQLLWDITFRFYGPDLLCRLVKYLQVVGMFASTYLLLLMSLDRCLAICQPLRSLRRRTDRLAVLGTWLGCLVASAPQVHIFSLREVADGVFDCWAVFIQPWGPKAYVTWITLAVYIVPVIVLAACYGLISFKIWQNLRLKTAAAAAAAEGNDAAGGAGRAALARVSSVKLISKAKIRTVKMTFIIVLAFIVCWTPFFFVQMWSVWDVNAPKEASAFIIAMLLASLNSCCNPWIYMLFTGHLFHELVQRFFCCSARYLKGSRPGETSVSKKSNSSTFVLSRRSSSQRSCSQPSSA
measurement.description: Half-maximal inhibition of binding of [3H]oxytocin to OT receptor in rat uterine tissue
// boundary case: IC50 equal to 3 µM maps to F; strictly smaller maps to T

Prompt: Take the compound CC1(C)C2CC[C@@]1(CS(=O)(=O)N1CCC3(CCCc4ccccc43)CC1)[C@H](O)C2 and say whether its IC50 is less than 3 µM.
Response: T

Prompt: Take the compound CC1(C)C2CC[C@@]1(CS(=O)(=O)N1CCC3(C=Cc4ccccc43)CC1)[C@](C)(O)C2 and say whether its IC50 is less than 3 µM.
Response: T

Prompt: Take the compound CCCCS(=O)(=O)N1CCC2(C=Cc3ccccc32)CC1 and say whether its IC50 is less than 3 µM.
Response: F

Prompt: Take the compound CN1C(=O)C2(CCN(S(=O)(=O)C[C@]34CC[C@H](CC3=O)C4(C)C)CC2)c2ccccc21 and say whether its IC50 is less than 3 µM.
Response: F

Prompt: Take the compound Cc1ccc(S(=O)(=O)NCCC2CCc3ccccc32)cc1 (stereo not drawn) and say whether its IC50 is less than 3 µM.
Response: F

Prompt: Take the compound O=[N+]([O-])c1cccc(S(=O)(=O)N2CCC3(C=Cc4ccccc43)CC2)c1 and say whether its IC50 is less than 3 µM.
Response: F

Prompt: Take the compound CC1(C)C2CC[C@@]1(CS(=O)(=O)N1CCC3(C=Cc4ccc(Cl)cc43)CC1)C(=O)C2 and say whether its IC50 is less than 3 µM.
Response: F

Prompt: Take the compound O=S(=O)(c1ccc(F)cc1)N1CCC2(C=Cc3ccccc32)CC1 and say whether its IC50 is less than 3 µM.
Response: F

Prompt: Take the compound CC1(C)C2CC[C@@]1(CS(=O)(=O)N1CCC3(C=Cc4cc(F)ccc43)CC1)C(=O)C2 and say whether its IC50 is less than 3 µM.
Response: T

Prompt: Take the compound CC1CN(S(=O)(=O)C[C@]23CCC(CC2=O)C3(C)C)CCC12C=Cc1ccccc12 (stereo partly drawn) and say whether its IC50 is less than 3 µM.
Response: F

Prompt: Take the compound Cc1ccccc1S(=O)(=O)N1CCC2(C=Cc3ccccc32)CC1 and say whether its IC50 is less than 3 µM.
Response: F

Prompt: Take the compound CC(=O)NC1C(=O)[C@]2(CS(=O)(=O)N3CCC4(CCc5ccccc54)CC3)CCC1C2(C)C (stereo partly drawn) and say whether its IC50 is less than 3 µM.
Response: F

Prompt: Take the compound O=C(Nc1ccc([N+](=O)[O-])cc1)N1CCC2(C=Cc3ccccc32)CC1 and say whether its IC50 is less than 3 µM.
Response: F

Prompt: Take the compound Cc1cccc2c1C=CC21CCN(S(=O)(=O)C[C@]23CCC(CC2=O)C3(C)C)CC1 and say whether its IC50 is less than 3 µM.
Response: F

Prompt: Take the compound CC1(C)C2CC[C@@]1(CS(=O)(=O)N1CCC3(C=C(c4ccccc4)c4ccccc43)CC1)C(=O)C2 and say whether its IC50 is less than 3 µM.
Response: F

Prompt: Take the compound CCN(CCC1CCc2ccccc21)S(=O)(=O)c1ccc(C)cc1 (stereo not drawn) and say whether its IC50 is less than 3 µM.
Response: F

Prompt: Take the compound CC1(C)C2CC[C@]1(CS(=O)(=O)N1CCC3(C=Cc4ccccc43)CC1)[C@@H](O)C2 and say whether its IC50 is less than 3 µM.
Response: F

Prompt: Take the compound CC1(C)C2CC[C@]1(CS(=O)(=O)N1CCC3(C=Cc4ccccc43)CC1)[C@H](O)C2 and say whether its IC50 is less than 3 µM.
Response: T

Prompt: Take the compound CC1(C)C(=O)[C@]2(CS(=O)(=O)N3CCC4(C=Cc5ccccc54)CC3)CCC1C2 and say whether its IC50 is less than 3 µM.
Response: F

Prompt: Take the compound O=[N+]([O-])c1ccc(CS(=O)(=O)N2CCC3(C=Cc4ccccc43)CC2)cc1 and say whether its IC50 is less than 3 µM.
Response: F

Prompt: Take the compound O=S(=O)(c1ccccc1)N1CCC2(C=Cc3ccccc32)CC1 and say whether its IC50 is less than 3 µM.
Response: F

Prompt: Take the compound Cc1ccc(NC(=O)N2CCC3(C=Cc4ccccc43)CC2)cc1 and say whether its IC50 is less than 3 µM.
Response: F

Prompt: Take the compound O=C(CC1CCCCCCC1)N1CCC2(C=Cc3ccccc32)CC1 and say whether its IC50 is less than 3 µM.
Response: F

Prompt: Take the compound COc1ccc2c(c1)C=CC21CCN(S(=O)(=O)C[C@]23CCC(C[C@@H]2O)C3(C)C)CC1 and say whether its IC50 is less than 3 µM.
Response: F

Prompt: Take the compound CCOC(=O)C1(c2ccccc2)CCN(S(=O)(=O)c2ccc(C)cc2)CC1C (stereo not drawn) and say whether its IC50 is less than 3 µM.
Response: F

Prompt: Take the compound COc1ccc2c(c1)C=CC21CCN(S(=O)(=O)C[C@]23CCC(CC2=O)C3(C)C)CC1 and say whether its IC50 is less than 3 µM.
Response: F

Prompt: Take the compound CC1(C)C2CC[C@@]1(CS(=O)(=O)N1CCC3(C=Cc4cc(Cl)ccc43)CC1)C(=O)C2 and say whether its IC50 is less than 3 µM.
Response: F

Prompt: Take the compound CC1(C)C2CC[C@@]1(CS(=O)(=O)N1CCC3(C=Cc4ccccc43)CC1)[C@@](O)(c1ccccc1)C2 and say whether its IC50 is less than 3 µM.
Response: T

Prompt: Take the compound O=[N+]([O-])c1ccc(S(=O)(=O)N2CCC3(C=Cc4ccccc43)CC2)cc1 and say whether its IC50 is less than 3 µM.
Response: F

Prompt: Take the compound Cc1ccc(S(=O)(=O)N2CCC(c3ccccc3)CC2)cc1 and say whether its IC50 is less than 3 µM.
Response: F

Prompt: Take the compound Cc1ccc(S(=O)(=O)N2CCC(c3ccccc3)(c3ccccc3)CC2)cc1 and say whether its IC50 is less than 3 µM.
Response: F

Prompt: Take the compound COc1ccc2c(c1)C1(C=C2)CCN(S(=O)(=O)C[C@]23CCC(CC2=O)C3(C)C)CC1 and say whether its IC50 is less than 3 µM.
Response: F

Prompt: Take the compound CC1(C)C2CC[C@@]1(CS(=O)(=O)N1CCC3(CCc4ccccc43)CC1)C(=O)C2 and say whether its IC50 is less than 3 µM.
Response: T

Prompt: Take the compound CC1(C)C2CC[C@@]1(CS(=O)(=O)N1CCC3(C=Cc4ccc(F)cc43)CC1)[C@H](O)C2 and say whether its IC50 is less than 3 µM.
Response: T

Prompt: Take the compound CC1(C)C2CC[C@]1(CC(=O)N1CCC3(C=Cc4ccccc43)CC1)C(=O)C2 and say whether its IC50 is less than 3 µM.
Response: F

Prompt: Take the compound CC1(C)C2CC[C@@]1(CS(=O)(=O)N1CCC3(C=Cc4ccc(-c5ccccc5)cc43)CC1)C(=O)C2 and say whether its IC50 is less than 3 µM.
Response: F
